Biological target: GLP-1 receptor (GLP-1R), primary cAMP assay (human, UniProt P43220 24-463)
Assay: cell-based or functional assay
Starred links: 1 amine or outer side, 2 acyl side, 3 side chain; linkers in the order of their positions; H or OH if unused. Non-standard residues stand in square brackets, D forms with d. Groups on a side chain read outwards from the residue. Primed or numbered codes have the meaning given here. No end group written: not given here. *: point of attachment. γGlu = O=C(O)[C@H](CCC(=O)[*:2])N[*:1]; Palmitoyl = CCCCCCCCCCCCCCCC(=O)*; αMeF = C[C@](N)(Cc1ccccc1)C(=O)O; αMeK = C[C@](N)(CCCCN)C(=O)O; Lauroyl = CCCCCCCCCCCC(=O)*; αMeS = C[C@](N)(CO)C(=O)O; PEG2′ = not defined here; Aib = CC(C)(N)C(=O)O
measurement-type: Primary assay EC50 (cAMP), n1 (pM)
Dear colleague, please return just the value in pM, with no unit written.

binder="H[Aib]EGS[αMeF]TSDVSK([PEG2′-PEG2′-γGlu-Palmitoyl])FLEGEAA[αMeK]EFIK([PEG2′-PEG2′-γGlu-Palmitoyl])FVVEGG-NH2 [SEQ ID NO: 250]" measurement=29.2

Entry H[Aib]EGTFTSDVSK([PEG2′-PEG2′-γGlu-Lauroyl])YLEGEAAEEFIK([PEG2′-PEG2′-γGlu-Lauroyl])WVVEGG-NH2 [SEQ ID NO: 236] , Primary assay EC50 (cAMP), n1 reported as 16.5

Entry H[Aib]EGS[αMeF]TSDK([PEG2′-PEG2′-γGlu-Palmitoyl])SSYLEGEAA[αMeK]EFIK([PEG2′-PEG2′-γGlu-Palmitoyl])WVVEGG-NH2 [SEQ ID NO: 259] , Primary assay EC50 (cAMP), n1 reported as 339

Entry H[Aib]EGS[αMeF]TSDV[αMeS]SK([PEG2′-PEG2′-γGlu-Lauroyl])LEGEAA[αMeK]EFIK([PEG2′-PEG2′-γGlu-Lauroyl])WVVEGG-NH2 [SEQ ID NO: 262] , Primary assay EC50 (cAMP), n1 reported as 6.73
